Test system: NCI-H226 lung
Test: NCI tumour cell line growth inhibition, 48 h
Property: TGI

NCI-H226 lung assay, compound `O=C(n1c2ccccc2c2n[nH]c(=S)nc21)C(F)(F)F` , recorded TGI = > 100 µM

The reported TGI value, NCI-H226 lung, for `COc1ccc2nc3cc(Cl)ccc3c(Nc3ccccc3-c3ccccc3Nc3c4ccc(Cl)cc4nc4ccc(OC)cc34)c2c1` reads > 73.4 µM

Fill in: NCI-H226 lung TGI for `CC(C)(C)OC(=O)NCCCCCCCCCn1c2c(c3ccccc3c1=O)C(=O)c1ccccc1-2` = > 100 µM

Entry `CNc1c2ccccc2nc2occ(Cl)c12` , tested on NCI-H226 lung, has a reported TGI of > 100 µM

Entry `NCC(=O)Nc1ccc(Cl)cc1C(=O)c1ccc[nH]1` , NCI-H226 lung data, TGI value: > 100 µM

Entry `CN(C)CCCNc1ccnc2c([N+](=O)[O-])cccc12` ; assay system NCI-H226 lung; TGI recorded at > 100 µM

Note to self: TGI of `COc1cc(C[C@H]2COC(=O)[C@]2(O)Cc2ccc(OCc3ccccc3)c(OC)c2)ccc1OCc1ccccc1` with NCI-H226 lung was > 100 µM

Entry CCC1(O)C(=O)OCc2c1cc1n(c2=O)Cc2cc3cc4c(cc3nc2-1)OCO4 (stereo not given) ; assay system NCI-H226 lung; TGI recorded at 0.0252 µM

Field TGI (NCI-H226 lung), entry `CN[C@@H](C)C(=O)N[C@H](C(=O)N1CCC[C@H]1c1nc(C(=O)c2ccc(F)cc2)cs1)C1CCCCC1` : > 100 µM

TGI value, target or system NCI-H226 lung, for `CC(=O)/C=C1\CC(=O)N(C)c2ccccc2N1` : > 100 µM

Recorded TGI for `Cc1cc2ncn(CC(=O)O)c2cc1C` on NCI-H226 lung was > 100 µM

Tested system NCI-H226 lung; TGI recorded for COc1cc(/C=C2\C(=O)N(c3cccc(NC(C)=O)c3)C(c3ccccc3)S2(=O)=O)cc(OC)c1OC (stereo not given) was > 100 µM

The measured TGI that CCC(C)C(Nc1c2ccccc2nc2c(C(=O)NCCN(C)C)cccc12)C(=O)O (stereo not given) showed for NCI-H226 lung is 32.1 µM

Measured TGI (NCI-H226 lung), entry `CCOC(=O)NC(Nc1ccc(F)cc1F)(C(F)(F)F)C(F)(F)F` : > 100 µM

Entry `Cc1cc(C)c2c(=N)c3ccccc3n(CCCCCCCCn3c4ccccc4c(=N)c4c(C)cc(C)nc43)c2n1` ; assay system NCI-H226 lung; TGI recorded at 3.38 µM

The reported TGI value, NCI-H226 lung, for N#CN1CC[C@@H]2CC3(CCC2C1)OCCO3 (stereo not given in full) reads > 100 µM

Field TGI (system: NCI-H226 lung) for entry COc1ccc(-c2cc(-c3ccc(C)cc3)n(C3OC(COC(C)=O)C(OC(C)=O)C(OC(C)=O)C3OC(C)=O)c(=S)c2C#N)cc1 (stereo not given) = > 100 µM

Measured on NCI-H226 lung, `O=C(Cn1c2ccc(Br)cc2c2nc3ccccc3nc21)NCc1ccccc1` has a documented TGI of > 100 µM

Form field TGI for item `CCC1(CC)C(=O)NC(=O)NC1=S` on NCI-H226 lung: > 100 µM

Value (TGI, NCI-H226 lung) for record `Nc1cc(OCC2CCCCC2)nc(N)n1` = > 100 µM

The recorded TGI with NCI-H226 lung for `CCN(Cc1cc(Cl)cc(C)c1O)Cc1c(O)ccc2ccccc12` was 41 µM

Per the reported NCI-H226 lung data, CC(=O)OCC1OC(n2c(C)c(C)cc(C#N)c2=S)C(OC(C)=O)C(OC(C)=O)C1OC(C)=O (stereo not given) has TGI of > 100 µM

Simply: COP(=O)(OC)C(N)Cc1c[nH]c2ccccc12 (stereo not given) , NCI-H226 lung, TGI = > 100 µM

For `O=[N+]([O-])c1ccccc1/C=N\NC(=S)N/N=C/c1ccccc1[N+](=O)[O-]` on NCI-H226 lung, measured TGI was > 100 µM

Observed TGI, NCI-H226 lung, `COc1ccc(SCc2cc(OC)ccc2OC)cc1` : > 100 µM

Entry `Cc1cn(S(=O)(=O)c2ccccc2)c2c(OCc3ccccc3)cc([N+](=O)[O-])cc12` ; assay system NCI-H226 lung; TGI recorded at > 100 µM

Considering `O=C1/C(=C/c2ccc(F)cc2)COc2ccc(O)c(O)c21` , its TGI with NCI-H226 lung was recorded as 7.08 µM

TGI of `COc1cc2ncnc(NS(=O)(=O)c3cc4ccccc4s3)c2cc1OC` , assay on NCI-H226 lung, is > 100 µM

Lab note: compound `COc1ccccc1/C=C1\C(=O)N(C(=O)Cc2ccccc2)N=C1C` tested on NCI-H226 lung; recorded TGI was > 100 µM

Form field, TGI with NCI-H226 lung, item Cc1ccc([N+](=O)[O-])cc1S(=O)(=O)Nc1ccc(C2=NN(S(=O)(=O)c3cc([N+](=O)[O-])ccc3C)C(c3cccs3)C2)cc1 (stereo not given) : > 100 µM

* * *

Answer each item with its documented TGI.
Test system: DLD-1 colon
Assay: NCI tumour cell line growth inhibition, 48 h

# COc1ccc(C2CC(c3sc(Nc4ccc(C)cc4)nc3C)=NN2)cc1 (centres undefined) with DLD-1 colon: TGI is 35.7 µM

The measured TGI that `COc1cc(/C=C/c2ccc(OC)c(OC)c2)oc(=O)c1` showed for DLD-1 colon is > 250 µM

# TGI measured on DLD-1 colon for item `ClCCCN1CCN(CCCl)CC1` = 319 µM

Test item `O=C1NC(c2ccccc2)(c2ccccc2)C(=O)N1CCCCCCN1C(=O)NC(c2ccccc2)(c2ccccc2)C1=O` ; DLD-1 colon; reported TGI was > 100 µM

Fill in: DLD-1 colon TGI for CCCCC[C@@H]1CCCC2NC(CCCCCO[Si](c3ccccc3)(c3ccccc3)C(C)(C)C)CCC21 (some centres undefined) = 28.1 µM

Reading of TGI for `Cc1nc(-n2nc(-c3ccccc3)cc2-c2ccccc2)sc1C(=O)CC(=O)C(=O)Nc1ccc(Cl)c(Cl)c1` with DLD-1 colon: > 100 µM

Record `Cc1nc2ccccc2c(=O)n1/N=C(\N=Nc1ccc(Cl)cc1)c1cccc(-c2ccco2)c1` has DLD-1 colon TGI equal to > 100 µM

With DLD-1 colon as the test system, S=C1SCC2CCCN12 (centres undefined) showed TGI of > 100 µM

# lookup: CCC1(O)C(=O)OCc2c1cc1n(c2=O)Cc2cc3cc4c(cc3nc2-1)OCO4 (centres undefined) on DLD-1 colon, TGI = > 60.3 µM

* * *

System: OVCAR-4 ovarian
Assay: NCI tumour cell line growth inhibition, 48 h
Property: TGI

So, `COc1ccc(-c2nc(NC(=O)CS(=O)(=O)c3ccc(F)cc3)sc2C)cc1` ? Its TGI was > 100 µM

Entry O=[N+]([O-])c1ccc2c(c1)nc1n2C(c2c(F)cccc2F)SC1 (stereo not drawn) — recorded TGI = > 100 µM

TGI reading for `CC(C)(C)OC(=O)NCCCCCCCCCn1c2c(c3ccccc3c1=O)C(=O)c1ccccc1-2` : > 100 µM

* * *

Would you mind telling me the reported TGI of each entry?
Tested on: U251 CNS
Test: NCI tumour cell line growth inhibition, 48 h

Summary: `O=C(n1c2ccccc2c2n[nH]c(=S)nc21)C(F)(F)F` , U251 CNS, TGI = > 100 µM

GET /values?item= `CCOC(=O)c1ccc(N=Cc2ccc(N(CCC#N)S(=O)(=O)c3ccccc3)cc2C)cc1` &system= U251 CNS returns TGI: > 100 µM

Note to self: TGI of `O=C1/C(=C/c2cccc([N+](=O)[O-])c2)N=C(c2ccccc2)N1c1nc2ccc(Sc3ccccc3)cc2[nH]1` with U251 CNS was > 100 µM

Bench note, U251 CNS: entry CC(C)(C)OC(=O)NC(CSCc1ccc(C(=O)c2ccccc2)cc1)C(=O)N1CCN(CCCCN2c3ccccc3Sc3cc(N=[N+]=[N-])ccc32)CC1 (stereo not drawn) , its TGI = > 100 µM

Item `COc1cc(C[C@@]2(C)[C@@H]3CCC[C@H](CO)[C@@]3(C)CC[C@@H]2C)c(Cl)c(OC)c1` was tested on U251 CNS; the reported TGI is 29 µM

// TGI (U251 CNS) for CC1[C@@]2(O[C@@H]3C=C4C5CCC6Cc7nc8c(nc7C[C@@]6(C)C5C[C@H](O)[C@@]4(C)[C@]13O)CC1CCc3c(cc4c5c3C(O)C[C@H]5[C@@H](C)C3(O4)OC(C)(C)CC3O)[C@]1(C)C8)O[C@@](C)(CO)C[C@@H]2O (stereo partly drawn) = 0.586 µM

TGI on U251 CNS for `Cc1cc(NC(=O)NCCOc2ccc(N3C(N)=NC(N)=NC3(C)C)cc2Cl)ccc1S(=O)(=O)F` is > 72.9 µM

# lookup: `COC(=O)c1csc(-c2csc(CCNC(=O)OC(C)(C)C)n2)n1` on U251 CNS, TGI = > 100 µM
